Test system: E. coli
Experiment Summary: microbe, parasite or virus in culture
Assay type: cell-based
Run Parameters: increase of 3-HP MIC over BW25113 in M9 without supplements; M9 media with the named supplement(s), aerobic
Parameter: % Increase Over Control (%)
I only need the number, in %, no unit after it.

Q: Given Nc1ccc(C(=O)O)cc1 [p-aminobenzoate (A)] , state its recorded % Increase Over Control.
Ans: 27

Q: Given NCCC[C@H](N)C(=O)O , state its recorded % Increase Over Control.
Ans: 9

Q: Given Nc1nc(=O)c2c([nH]1)NC[C@@H](CNc1ccc(C(=O)N[C@@H](CCC(=O)O)C(=O)O)cc1)N2 [Tetrahydrofolate (A)] , state its recorded % Increase Over Control.
Ans: 9

Q: Given O=C(O)O [Bicarbonate (C)] , state its recorded % Increase Over Control.
Ans: 59

Q: Given O=C(O)C1=C[C@@H](O)[C@@H](O)[C@H](O)C1 [Shikimate (A)] , state its recorded % Increase Over Control.
Ans: 3

Q: Given N[C@@H](CO)C(=O)O , state its recorded % Increase Over Control.
Ans: 17

Data provenance: patent US20130122541A1
